- System: SNB-75 CNS
- Assay: NCI-60 one-dose screen, 48 h (100 = growth as untreated, 0 = no growth, -100 = all killed)
- Condition: 10 µM
The panel holds about 83,000 compounds, 20% with a hit somewhere; the sample as a whole holds those more often.
Lab note - cut at 90% for growth: Yes if strictly below, No if not.

[
  {
    "Compound": "COc1ccc2c(c1)C(=O)/C(=C/c1ncc([N+](=O)[O-])n1C)O2",
    "Group label": "Yes"
  },
  {
    "Compound": "CCOC(=O)c1cc(C(=O)c2ccc(OC)c(OC)c2)n2ccncc12",
    "Group label": "No"
  },
  {
    "Compound": "NNC(=O)Oc1c(Cl)cc(Cl)cc1[N+](=O)[O-]",
    "Group label": "No"
  },
  {
    "Compound": "COC(=O)C1(O)NC(=C(C#N)C#N)C(C#N)=C1C(=O)c1ccc(OC)c(OC)c1 (stereo unspecified)",
    "Group label": "No"
  },
  {
    "Compound": "COc1ccc(/C(C#N)=C/c2ccccc2OC)cc1",
    "Group label": "Yes"
  },
  {
    "Compound": "COc1ccc(Cl)cc1Nc1nc(C(F)(F)F)ccc1C(=O)N/N=C/c1ccc(Cl)cc1",
    "Group label": "Yes"
  },
  {
    "Compound": "COc1ccc(C2CC(c3cc(OC)c(OC)c(OC)c3)=NN2)cc1 (stereo unspecified)",
    "Group label": "Yes"
  },
  {
    "Compound": "O=C(CCCSc1nc(-c2ccc(Cl)cc2)cc(-c2ccc(Cl)cc2)n1)NO",
    "Group label": "Yes"
  },
  {
    "Compound": "CN1CCN(C2=Nc3ccccc3Oc3ccc(Cl)cc32)CC1",
    "Group label": "Yes"
  },
  {
    "Compound": "COc1cc(/C=C/c2cc(/C=C/c3ccc(O)c(OC)c3)[nH]c(=O)n2)ccc1O",
    "Group label": "Yes"
  },
  {
    "Compound": "CN(C)CCCOc1ccc(OCCCN(C)C)c2c1C(=O)c1ccccc1C2=O",
    "Group label": "Yes"
  },
  {
    "Compound": "CC(C)(C)OC(=O)N1CCc2c(sc3ncnc(N/N=C/c4cccc5ccccc45)c23)C1",
    "Group label": "Yes"
  },
  {
    "Compound": "O=C1Cc2cc(CCN3CCN(c4nsc5ccccc45)CC3)c(Cl)cc2N1",
    "Group label": "Yes"
  },
  {
    "Compound": "COc1ccc(-c2nn(-c3cccc(Cl)c3)cc2-c2c(C#N)c(=O)n3[nH]c(-c4ccccc4)nc3c2C#N)cc1",
    "Group label": "Yes"
  },
  {
    "Compound": "CC[C@@H](C(=O)[C@@H](C)[C@@H](O)[C@H](C)[C@@H]1O[C@@H]([C@@H](CC)C(=O)N(CC)CC)CC[C@@H]1C)C1O[C@]2(C=CC(=O)[C@]3(CC[C@@](C)([C@H]4CC[C@](O)(CC)[C@H](C)O4)O3)O2)[C@H](C)C[C@@H]1C (stereo partly specified)",
    "Group label": "Yes"
  },
  {
    "Compound": "CCN(CC)CCOc1ccc2c(c1O)C(=O)c1ccccc1C2=O",
    "Group label": "Yes"
  },
  {
    "Compound": "Cc1ccc(S(=O)(=O)N(C)CCCCCC(=O)O)cc1",
    "Group label": "No"
  },
  {
    "Compound": "CC(CN(C)C)Oc1ccccc1NC1=C(Cl)C(=O)C(Nc2ccccc2OC(C)CN(C)C)=C(Cl)C1=O (stereo unspecified)",
    "Group label": "Yes"
  },
  {
    "Compound": "Cc1c2c[n+](C(C)C)ccc2c(C)c2c1[nH]c1ccccc12",
    "Group label": "Yes"
  },
  {
    "Compound": "OC(CCN1CCCC1)(c1ccccc1)C1CCCCC1 (stereo unspecified)",
    "Group label": "Yes"
  },
  {
    "Compound": "Cc1ccc(C(=O)C2C(=O)C3CCC2C3)cc1 (stereo unspecified)",
    "Group label": "No"
  },
  {
    "Compound": "Cc1cc(=O)n2nnc3cc(Cl)c(Cl)cc3n12",
    "Group label": "No"
  },
  {
    "Compound": "O=S(=O)(NCCCNc1nccc(-c2cn(-c3ccccc3)nc2-c2ccc(Cl)c(O)c2)n1)c1ccccc1",
    "Group label": "Yes"
  }
]

----------
// reported growth per item
- Tested on: CCRF-CEM leukemia
- Assay: NCI-60 one-dose screen, 48 h (100 = growth as untreated, 0 = no growth, -100 = all killed)
- Condition: 10 µM
Compounds without any hit were thinned out: in the full panel of roughly 83,000, 20% have a hit.
Assay endpoint: growth (%)

[
  {
    "Compound": "O=C(CNc1nnc(-c2cccnc2SCc2ccccc2)s1)Nc1nc(Cl)cc(Cl)n1",
    "Numeric result": 102
  },
  {
    "Compound": "S=C(NCc1ccccc1)NCc1ccccc1",
    "Numeric result": 95.9
  },
  {
    "Compound": "COc1cc(C)ccc1Oc1nc(Nc2ccc(N3CCOCC3)cc2)ncc1NC(=O)Nc1cc(C(F)(F)F)cc(C(F)(F)F)c1",
    "Numeric result": 41.9
  },
  {
    "Compound": "COc1cc2c(cc1OC)C(C(CCCCCC(CCC(C)C)C1NCCc3cc(OC)c(OC)cc31)CCC(C)C)NCC2 (configuration not stated)",
    "Numeric result": -74.3
  },
  {
    "Compound": "CC(C)C[C@H](NC(=O)Cn1cccc(CNC(=O)c2ccccc2)c1=O)B(O)O",
    "Numeric result": 2.66
  },
  {
    "Compound": "CN(C)CCC1(c2ccccc2)CCN(C)C1=O (configuration not stated)",
    "Numeric result": 103
  },
  {
    "Compound": "CO[C@H]1CC(O[C@@H]2/C(C)=C/C[C@@H]3C[C@@H](C[C@]4(C=C[C@H](C)[C@@H](C5CCCCC5)O4)O3)OC(=O)[C@@H]3C=C(C)[C@@H](O)[C@H]4OC/C(=C\\C=C\\[C@@H]2C)[C@]43O)O[C@@H](C)C1O[C@H]1C[C@H](OC)[C@@H](O)[C@H](C)O1 (some centres not stated)",
    "Numeric result": -44.1
  },
  {
    "Compound": "CS(=O)(=O)c1nccc(-c2c(-c3cccc(OCc4ccc(F)cc4)c3)nc3sccn23)n1",
    "Numeric result": 50
  },
  {
    "Compound": "O=C1CC(SC(=S)C2CCCC2=O)C(=O)N1 (configuration not stated)",
    "Numeric result": 101
  },
  {
    "Compound": "CCNCC(=O)Nc1ccc(C(=O)OCC)cc1",
    "Numeric result": 96.4
  },
  {
    "Compound": "N#Cc1c(-c2ccc(Cl)cc2)n(O)c2ccccc12",
    "Numeric result": 16.2
  },
  {
    "Compound": "CC(C)CCN(CCC(C)C)CC(=O)Nc1ccc(S(=O)(=O)c2ccc(NC(=O)CN(CCC(C)C)CCC(C)C)cc2)cc1",
    "Numeric result": 2
  }
]
